Cited source: PubChem BioAssay AID652054

- System tested: D(3) dopamine receptor (Homo sapiens)
- Test: qHTS of D3 Dopamine Receptor Antagonist: qHTS; note: % is set by controls: 0 for no effect and ±100 for the full control effect
- Details: D3R cells, DiscoveRx beta-arrestin luminescence, antagonist mode; stronger effect = lower value
The whole screen tested about 360,000 compounds, of which about 9,100 (2.5%) were called active. About 4% were inconclusive and are not listed. Only a selection was taken, and actives are over-represented in it overall.
Exercise: for every item that follows, state its recorded max response, negative = inhibition.
Give bare numbers, in %.

// worked examples, max response, negative = inhibition included
- Compound: "CN(CC(=O)O)C(=O)c1ccccc1"
  System tested: "D(3) dopamine receptor (Homo sapiens)"
  Unit of measure: "%"
  max response, negative = inhibition: -19.9
- Compound: "CN(O)C(=S)c1ccccc1"
  System tested: "D(3) dopamine receptor (Homo sapiens)"
  Unit of measure: "%"
  max response, negative = inhibition: -113
- Compound: "C[C@H]1Cn2cnc(C(=O)N[C@H](C)c3ccccc3)c2C(=O)N1"
  System tested: "D(3) dopamine receptor (Homo sapiens)"
  Unit of measure: "%"
  max response, negative = inhibition: -3.02
- Compound: "CCc1nc2c(OCCc3cccc(OC)c3)cccn2c1N(C)C(=O)c1ccc(C)cc1"
  System tested: "D(3) dopamine receptor (Homo sapiens)"
  Unit of measure: "%"
  max response, negative = inhibition: -6.67
- Compound: "Cc1ccccc1OCC(=O)Nc1ccc(N2CCN(C(=O)C(C)C)CC2)c(Cl)c1"
  System tested: "D(3) dopamine receptor (Homo sapiens)"
  Unit of measure: "%"
  max response, negative = inhibition: 26.3

Please state, for each entry, its recorded max response, negative = inhibition.
1. O=C1NC[C@H](Cc2ccc(O)cc2)N(C[C@@H]2CCCN2C[C@H](Cc2ccccc2)N2C[C@H](Cc3ccccc3)N(CC3CCCCC3)C(=O)C2=O)C1=O
2. CN(Cc1ccccc1)C(=O)c1cccc(C(=O)N(C)Cc2ccccc2)c1

1. 8.41
2. -13

Please state, for each entry, its recorded max response, negative = inhibition.
1. CCCCCNC(=O)C1C(=O)Nc2ccccc2C(=O)N1C(C)(C)C (stereo not given)
2. COc1ccc(NC(=O)C[C@H]2C(=O)N(CCc3ccccc3)C[C@@H]2C)cc1
3. CC1(C)Cc2ccccc2-c2[nH]c(=S)[nH]c(=O)c21

-19.2
1.09
-54.5

----------
- System tested: D(3) dopamine receptor (Homo sapiens)
- Test: qHTS of D3 Dopamine Receptor Antagonist: qHTS; note: % is set by controls: 0 for no effect and ±100 for the full control effect
- Details: D3R cells, DiscoveRx beta-arrestin luminescence, antagonist mode
Out of some 360,000 compounds screened, about 9,100 (2.5%) were called active. Another 4% or so got no clear call; they are omitted. No stated cut-off is given here; in the data, active means max response below about -50%; inconclusive means no clear call, values can overlap the other calls; inactive means above that. Many of the other results were omitted from the sample, so actives are more common in it than they were.
Outcomes you can answer with include only these: y (active), n (inactive)

Examples from the recorded data:
- Molecule: "Cc1cc(C#N)c(SCC(N)=O)nc1-c1ccc(F)cc1"
  System tested: "D(3) dopamine receptor (Homo sapiens)"
  Class label: "n"
- Molecule: "O=C(NC(=O)N1CCOCC1)c1ccccc1"
  System tested: "D(3) dopamine receptor (Homo sapiens)"
  Class label: "n"
- Molecule: "COc1ccc(Nc2cc(=O)oc3ccccc23)cc1"
  System tested: "D(3) dopamine receptor (Homo sapiens)"
  Class label: "n"
- Molecule: "CC1(C(=O)NCCc2c[nH]c3ccccc23)C=CC2(CCCCC2)N1C(=O)c1ccccc1 (configuration not stated)"
  System tested: "D(3) dopamine receptor (Homo sapiens)"
  Class label: "n"
- Molecule: "COc1ccc(C2OC(CCc3ccccc3)Cc3[nH]c(=S)[nH]c(=O)c32)cc1 (configuration not stated)"
  System tested: "D(3) dopamine receptor (Homo sapiens)"
  Class label: "n"
- Molecule: "COC(=O)C1=C(C)NC2=C(C(=O)c3ccccc32)C1c1ccc(-c2ccc(C(=O)O)cc2)o1 (configuration not stated)"
  System tested: "D(3) dopamine receptor (Homo sapiens)"
  Class label: "y"

Please state the recorded outcome for this molecule: CCOc1ccc(CN2CCCN(C)CC2)cc1
n

Entry CCC(C)NCCOCCOc1ccc(Br)cc1C (configuration not stated) please
y

Entry O=C(Nc1ccc(S(=O)(=O)N2CCc3ccccc3C2)cc1)c1ccccc1 please
n

----------
- System tested: D(3) dopamine receptor (Homo sapiens) (UniProt P35462)
- Sequence (P35462 whole entry, looked up): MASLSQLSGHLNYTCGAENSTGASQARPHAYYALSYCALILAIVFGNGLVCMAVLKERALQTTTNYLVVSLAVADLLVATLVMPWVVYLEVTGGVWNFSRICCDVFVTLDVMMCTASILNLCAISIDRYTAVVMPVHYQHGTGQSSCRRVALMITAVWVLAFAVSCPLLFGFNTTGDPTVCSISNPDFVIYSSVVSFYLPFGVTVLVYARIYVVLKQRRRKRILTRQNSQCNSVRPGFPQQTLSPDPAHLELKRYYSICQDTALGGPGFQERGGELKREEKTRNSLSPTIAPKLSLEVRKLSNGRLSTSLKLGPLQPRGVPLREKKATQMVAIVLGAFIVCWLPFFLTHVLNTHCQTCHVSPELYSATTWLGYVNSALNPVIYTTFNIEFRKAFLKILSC
- Test: qHTS of D3 Dopamine Receptor Antagonist: qHTS; note: % is set by controls: 0 for no effect and ±100 for the full control effect
- Details: D3R cells, DiscoveRx beta-arrestin luminescence, antagonist mode
Among all 360,000 compounds or so, about 9,100 (2.5%) were called active. Another 4% or so got no clear call; they are omitted. No stated cut-off is given here; in the data, active means max response below about -50%; inconclusive means no clear call, values can overlap the other calls; inactive means above that. The sample as a whole holds a higher share of actives than the screen did.
Outcomes you can answer with include only these: active, inactive

- Compound: "CCCCCCN1CCN(C2CN(Cc3cn(CCCCCC)nn3)S(=O)(=O)C2)CC1 (stereo not given)"
  Class label: "inactive"
- Compound: "CN1CCN(C(=O)c2ccc(NC(=O)c3ccc(Br)o3)cc2)CC1"
  Class label: "inactive"
- Compound: "Cc1cc(C)n(-c2c(F)c(F)c(COC(=O)c3ccccc3)c(F)c2F)n1"
  Class label: "inactive"

Please state the recorded outcome for this compound: CCCCCNC(=O)C(c1ccc(OC)cc1)n1c(=O)c(-c2ccccc2)nc2ccccc21 (stereo not given)
inactive

Entry COc1cccc(-c2nc3nc(C)cc(C)n3c2NC2CCCCC2)c1 please
inactive

Entry CCOC(=O)c1cnc(-n2nc(C)cc2C)nc1NNc1cc(C)nc(-c2ccccc2)n1 please
active

Entry COc1ccc(C(CC(=O)N2CCN(c3ccccc3)CC2)c2c(O)cc(OC)cc2OC)cc1 (stereo not given) please
inactive

Entry Cc1ccc(-c2cnc(C(O)c3cc(Cl)cc(Cl)c3)[nH]2)cc1 (stereo not given) please
inactive

Entry CCN(CC)C(=O)CC(c1ccc2c(c1)OCO2)c1c(OC)cc(OC)c2c(-c3ccccc3)cc(=O)oc12 (stereo not given) please
inactive

Entry COc1cc(OC)c2ccc(=O)oc2c1C(CCN1CCN(c2ccccc2)CC1)c1ccc2c(c1)OCO2 (stereo not given) please
active

Entry CC(=O)c1ccc(-c2cnc3c(NC=O)cc(-c4cccc(NS(C)(=O)=O)c4)cn23)cc1 please
inactive

----------
- System tested: D(3) dopamine receptor (Homo sapiens)
- Test: qHTS of D3 Dopamine Receptor Antagonist: qHTS; note: % is set by controls: 0 for no effect and ±100 for the full control effect
- Details: D3R cells, DiscoveRx beta-arrestin luminescence, antagonist mode; stronger effect = lower value
About 9,100 (2.5%) of roughly 360,000 compounds were called active. Not shown: some 4% with an inconclusive outcome. This is one part of a sample in which actives are shown more often than they occur.
Please note: max response, negative = inhibition exactly at -20% is not fulfilled. Only values below -20% get fulfilled.

- Compound: "Fc1ccc(N2CCN(Cc3cnc(Oc4ccc(Br)cc4)s3)CC2)cc1"
  Class label: "fulfilled"
- Compound: "CC(=O)NC1C(OCc2ccccc2)OC(COC(C)=O)C(OC(C)=O)C1OC(C)=O (stereo unspecified)"
  Class label: "fulfilled"
- Compound: "COc1ccc(N2CCN(C(=O)CNC(=O)c3ccc(Br)o3)CC2)cc1"
  Class label: "not fulfilled"
- Compound: "O=[N+]([O-])c1ccc(N2CCN(c3ccc(F)cc3)CC2)cn1"
  Class label: "not fulfilled"
- Compound: "CC(C)(C(=O)N1CCC1(C)C(=O)NS(=O)(=O)c1ccc(Br)cc1)c1ccccc1 (stereo unspecified)"
  Class label: "not fulfilled"

Input CC(=O)NC1C(Oc2ccc(C=O)cc2)OC(COC(C)=O)C(OC(C)=O)C1OC(C)=O (stereo unspecified) ; condition: max response, negative = inhibition strictly below -20%. Does it hold?
not fulfilled

Entry CCOC(=O)C1(C)CCCN(C(=O)c2cccc(Cl)c2)C1 (stereo unspecified) please
not fulfilled

Entry CC(C)c1csc(CN2CCC(CO)(Cc3ccccc3)CC2)n1 please
fulfilled

Entry O=C(c1ccccc1Oc1ccccc1)N1CCN(c2ccc(F)cc2)CC1 please
not fulfilled

Entry COc1ccc(N2CCN(Cc3ccc(Br)s3)CC2)cc1 please
fulfilled

Entry CCc1cccc(OC2OC(CO)C(O)C(O)C2NC(C)=O)c1 (stereo unspecified) please
fulfilled

----------
- System tested: D(3) dopamine receptor (Homo sapiens)
- Test: qHTS of D3 Dopamine Receptor Antagonist: qHTS; note: % is set by controls: 0 for no effect and ±100 for the full control effect
- Details: D3R cells, DiscoveRx beta-arrestin luminescence, antagonist mode
In all, about 360,000 compounds went through this assay and about 9,100 (2.5%) were called active. Another 4% or so got no clear call; they are omitted. Rule as the data show it: active = max response below about -50%; inconclusive = no clear call, values can overlap the other calls; inactive = above that. The sample holds actives, similar compounds and a random draw of the others, so the mix is not that of the screen.
Outcomes you can answer with include only these: true (1) (active), false (0) (inactive)

Examples from the recorded data:
- Molecule: "COCCNc1nc(NCc2ccc(NC(C)=O)cc2)c2sccc2n1"
  Class label: "false (0)"
- Molecule: "Cc1ccc(C(=O)C[n+]2cc(-c3ccccc3)n3c2CCCCC3)cc1"
  Class label: "false (0)"
- Molecule: "COc1ccc(NC(=O)N(C)C[C@@H]2OCc3cn(nn3)CCCC(=O)N([C@H](C)CO)C[C@H]2C)c(OC)c1"
  Class label: "false (0)"

Please state the recorded outcome for this molecule: CC1(C)CC(=O)C=C(c2ccc(COC(=O)c3cc(F)cc(F)c3)cc2)C1=O
false (0)

Entry CC(=O)C[C@@H]1OC[C@H](CO)N1S(=O)(=O)c1ccc(C)cc1 please
false (0)

Entry COc1ccc(CCC(C)N2CCc3ccccc3C2)cc1 (stereo not given) please
true (1)

Entry Cc1ccc(CC2(C)C(=O)Nc3ccc(OC(F)(F)F)cc32)cc1 (stereo not given) please
false (0)

Entry CCN(CC)S(=O)(=O)c1cc([N+](=O)[O-])ccc1NNC(=O)Nc1ccccc1 please
true (1)

Entry CC(=O)c1ccc(NC(=O)Nc2ccc([N+](=O)[O-])cc2C)cc1 please
false (0)

Entry CC1CC2=C(CC1/C=N/NC(N)=S)C(C)(C)CCC2 (stereo not given) please
true (1)
